System: Staphylococcus aureus MW2 delta-mecA (mecA-)
Assay: normalized GFP fluorescence (growth of mecA- strain) (fraction of control range); higher = more growth of mecA- strain
Conditions: compound concentration: 150 uM; cefoxitin: subinhibitory; fluorescent label: GFP
Counter-ions that a name gives are not always drawn.
// map normalized GFP fluorescence onto a label; ranges lower (below 0.1), middle (0.1 to below 0.4), upper (0.4 or more)

| COMPOUND | MEASURED ON | LABEL |
| --- | --- | --- |
| CC(C)NCC(O)c1ccc(O)c(O)c1 (centres undefined) [Isoprenaline hydrochloride] | Staphylococcus aureus MW2 delta-mecA (mecA-) | upper |
| CC(COc1ccccc1)NC(C)C(O)c1ccc(O)cc1 (centres undefined) | Staphylococcus aureus MW2 delta-mecA (mecA-) | upper |
| N=C(N)N | Staphylococcus aureus MW2 delta-mecA (mecA-) | middle |
| CCC(=O)O[C@H](CC(=O)O)C[N+](C)(C)C | Staphylococcus aureus MW2 delta-mecA (mecA-) | middle |
| CNC[C@H](O)c1ccc(O)c(O)c1 | Staphylococcus aureus MW2 delta-mecA (mecA-) | upper |
| OC(CCN1CCCC1)(c1ccccc1)C1CCCCC1 (centres undefined) | Staphylococcus aureus MW2 delta-mecA (mecA-) | middle |
| Cc1nc(=O)c2cc(CN(C)c3ccc(C(=O)N[C@@H](CCC(=O)O)C(=O)O)s3)ccc2[nH]1 | Staphylococcus aureus MW2 delta-mecA (mecA-) | upper |
| NS(=O)(=O)c1cc2c(cc1Cl)N=CNS2(=O)=O | Staphylococcus aureus MW2 delta-mecA (mecA-) | middle |
| CC(C)(C#N)c1cc(Cn2cncn2)cc(C(C)(C)C#N)c1 | Staphylococcus aureus MW2 delta-mecA (mecA-) | middle |
| C=CC(=O)N1CCC[C@@H](n2nc(-c3ccc(Oc4ccccc4)cc3)c3c(N)ncnc32)C1 | Staphylococcus aureus MW2 delta-mecA (mecA-) | lower |
| CC1=C(CC(=O)O)c2cc(F)ccc2/C1=C\c1ccc([S+](C)[O-])cc1 (centres undefined) | Staphylococcus aureus MW2 delta-mecA (mecA-) | middle |
| COc1cccc2c1C(=O)c1c(O)c3c(c(O)c1C2=O)C[C@@](O)(C(C)=O)C[C@@H]3O[C@H]1C[C@H](N)[C@H](O)[C@H](C)O1 | Staphylococcus aureus MW2 delta-mecA (mecA-) | lower |
| C[C@]12CC[C@@H]3c4ccc(O)cc4C[C@@H](CCCCCCCCC[S+]([O-])CCCC(F)(F)C(F)(F)F)[C@H]3[C@@H]1CC[C@@H]2O (some centres undefined) | Staphylococcus aureus MW2 delta-mecA (mecA-) | middle |
| OCc1cccnc1 | Staphylococcus aureus MW2 delta-mecA (mecA-) | upper |
| CN(C)C(=O)COC(=O)Cc1ccc(OC(=O)c2ccc(NC(=N)N)cc2)cc1 [Camostat Mesilate (FOY-305)] | Staphylococcus aureus MW2 delta-mecA (mecA-) | lower |
| CCN(C(=O)c1c(O)c2c(Cl)cccc2n(C)c1=O)c1ccccc1 | Staphylococcus aureus MW2 delta-mecA (mecA-) | lower |
| O=C(Oc1ccccc1C(=O)O)c1ccccc1O | Staphylococcus aureus MW2 delta-mecA (mecA-) | middle |
| CCC[C@H](NC(=O)[C@@H]1[C@H]2CCC[C@H]2CN1C(=O)[C@@H](NC(=O)[C@@H](NC(=O)c1cnccn1)C1CCCCC1)C(C)(C)C)C(=O)C(=O)NC1CC1 | Staphylococcus aureus MW2 delta-mecA (mecA-) | lower |
| CCC(=O)O[C@@H](O[P@](=O)(CCCCc1ccccc1)CC(=O)N1C[C@H](C2CCCCC2)C[C@H]1C(=O)O)C(C)C [Fosinopril sodium (Monopril)] | Staphylococcus aureus MW2 delta-mecA (mecA-) | lower |
| CN(C)CCOc1ccc(/C(=C(/CCCl)c2ccccc2)c2ccccc2)cc1 | Staphylococcus aureus MW2 delta-mecA (mecA-) | lower |
| Clc1ccc(C(Cn2ccnc2)OCc2c(Cl)cccc2Cl)c(Cl)c1 (centres undefined) [Isoconazole nitrate (Travogen)] | Staphylococcus aureus MW2 delta-mecA (mecA-) | lower |
| CCCN(CCC)CCc1cccc2c1CC(=O)N2 | Staphylococcus aureus MW2 delta-mecA (mecA-) | middle |
| C[C@]12C=CC(=O)C=C1CC[C@@H]1[C@@H]2C(=O)C[C@@]2(C)[C@H]1CC[C@]2(O)C(=O)CO | Staphylococcus aureus MW2 delta-mecA (mecA-) | middle |
| CN1CC2c3ccccc3Oc3ccc(Cl)cc3C2C1 (centres undefined) | Staphylococcus aureus MW2 delta-mecA (mecA-) | middle |
| CC(C)(C)NCC(O)c1cc(O)cc(O)c1 (centres undefined) | Staphylococcus aureus MW2 delta-mecA (mecA-) | upper |
| COc1cccc2c1C(=O)c1c(O)c3c(c(O)c1C2=O)C[C@@](O)(C(=O)CO)C[C@@H]3O[C@H]1C[C@H](N)[C@@H](O)[C@H](C)O1 | Staphylococcus aureus MW2 delta-mecA (mecA-) | lower |
| COc1cc2nc(N3CCN(C(=O)C4CCCO4)CC3)nc(N)c2cc1OC (centres undefined) [Terazosin HCl (Hytrin)] | Staphylococcus aureus MW2 delta-mecA (mecA-) | middle |
| Cc1cc(NS(=O)(=O)c2ccc(N)cc2)no1 | Staphylococcus aureus MW2 delta-mecA (mecA-) | lower |
| CCOC(=O)C1=C(C)NC(C)=C(C(=O)OCC)C1c1ccccc1/C=C/C(=O)OC(C)(C)C | Staphylococcus aureus MW2 delta-mecA (mecA-) | middle |
| COc1ccc2[nH]cc(CCNC(C)=O)c2c1 | Staphylococcus aureus MW2 delta-mecA (mecA-) | upper |
| CN1CCN(C2=Nc3cc(Cl)ccc3Nc3ccccc32)CC1 | Staphylococcus aureus MW2 delta-mecA (mecA-) | lower |
| OCCN1C[C@H](O)[C@@H](O)[C@H](O)[C@H]1CO | Staphylococcus aureus MW2 delta-mecA (mecA-) | upper |
| Cc1cn[nH]c1 | Staphylococcus aureus MW2 delta-mecA (mecA-) | upper |
| COC(=O)Nc1nc2cc(C(=O)c3ccccc3)ccc2[nH]1 | Staphylococcus aureus MW2 delta-mecA (mecA-) | middle |
| CCN1CCCC(OC(=O)C(c2ccccc2)c2ccccc2)C1 (centres undefined) | Staphylococcus aureus MW2 delta-mecA (mecA-) | upper |
| CCCNS(=O)(=O)Nc1ncnc(OCCOc2ncc(Br)cn2)c1-c1ccc(Br)cc1 | Staphylococcus aureus MW2 delta-mecA (mecA-) | lower |
| CC(C)(Sc1cc(C(C)(C)C)c(O)c(C(C)(C)C)c1)Sc1cc(C(C)(C)C)c(O)c(C(C)(C)C)c1 | Staphylococcus aureus MW2 delta-mecA (mecA-) | upper |
| N#Cc1ccc(C(c2ccc(C#N)cc2)n2cncn2)cc1 | Staphylococcus aureus MW2 delta-mecA (mecA-) | upper |
| CC#C[C@]1(O)CC[C@H]2[C@@H]3CCC4=CC(=O)CCC4=C3[C@@H](c3ccc(N(C)C)cc3)C[C@@]21C | Staphylococcus aureus MW2 delta-mecA (mecA-) | upper |
